Source: ChEMBL document CHEMBL1131493

# testDescription: In vivo antitumor efficacy in nude mice by injecting a dose of 25 mg/kg, as HCl salt in solution, iv and the total drug exposure was determined. (0-24hr)
# Format: ADME, organism-based
# Parameters: time < 24 hr, dose 25 mg/kg, route intravenous
# conditionInfo: mouse
parameterMeasured: AUC at 24 h

Prompt: Form field: reported AUC at 24 h of CN1CCC(CC(=O)N2CCN(C3c4ccc(Cl)cc4CCc4cc(Br)cnc43)CC2)CC1 (stereo unspecified)
Completion: 40600 ng·h/mL

* * *

# testDescription: In vivo antitumor efficacy in nude mice after peroral dose of 25 mg/kg expressed as Area under the curve
# Type: ADME, organism-based
# Set-up: dose 25 mg/kg, route oral
# conditionInfo: mouse, po
parameterMeasured: AUC (ng·h/mL)
The reply should be a number in ng·h/mL, with the unit left off.

Prompt: Fill blank: measured AUC of the compound O=C(Cc1ccncc1)N1CCN(C2c3ccc(Cl)cc3CCc3cc(Br)cnc32)CC1 (stereo unspecified) is ____.
Completion: 1100

* * *

Field: Inhibition. Provide a value for each of the molecules that follow.
# targetOrTestSystem: Protein farnesyltransferase (Homo sapiens, UniProt P49354+P49356)
# testDescription: In vitro inhibition of farnesyltransferase farnesylation of the H-ras oncogene
# Type: protein-complex assay
# Set-up: concentration or dose not given beside the values
// return numeric value only (unit: %, not printed)

Prompt: Given the entry NC(=O)N1CCCc2c(C(=O)N3CCN(C4c5ccc(Cl)cc5CCc5cc(Br)cnc54)CC3)cccc21 (stereo not given) , report its measured Inhibition.
Completion: 45

Prompt: Which Inhibition value is on record for O=C(c1cccc2ncccc12)N1CCN(C2c3ccc(Cl)cc3CCc3cccnc32)CC1 (stereo not given) ?
Completion: 15

Prompt: Which measured Inhibition value corresponds to O=C(c1cccc2c1ccc[n+]2[O-])N1CCN(C2c3ccc(Cl)cc3CCc3cc(Br)cnc32)CC1 (stereo not given) ?
Completion: 38

Prompt: Which Inhibition is listed for O=C(C1CCCC2NCCCC21)N1CCN(C2c3ccc(Cl)cc3CCc3cc(Br)cnc32)CC1 (stereo not given) ?
Completion: 23

Prompt: Item under review: O=C(Cc1cccnc1)N1CCN(C(=O)c2ccc(Cl)cc2)CC1 . Reported Inhibition?
Completion: 32

Prompt: Given the entry CC(C)(C)OC(=O)N1CCC(C(=O)N2CCN(C3c4ccc(Cl)cc4CCc4cccnc43)CC2)CC1 (stereo not given) , report its measured Inhibition.
Completion: 20

Prompt: // Inhibition lookup, key: N[C@@H](CS)CN1CCN(C2c3ccc(Cl)cc3CCc3cc(Br)cnc32)CC1 (stereo not given in full)
Completion: 19

Prompt: Suppose we examine the molecule CN1CCC(OC(=O)N2CCN(C3c4ccc(Cl)cc4CCc4cccnc43)CC2)CC1 (stereo not given) ; what Inhibition value has been reported?
Completion: 35

Prompt: // Inhibition lookup, key: Clc1ccc2c(c1)CCc1cccnc1C2N1CCN(CCc2cccnc2)CC1 (stereo not given)
Completion: 23

Prompt: Any idea what its Inhibition is? The molecule is O=C(c1cccc2ncccc12)N1CCN(C2c3ccc(Cl)cc3CCc3cc(Br)cnc32)CC1 (stereo not given)
Completion: 38

* * *

Answer each item with its documented IC50.
# targetOrTestSystem: geranylgeranyltransferase type-I (Rattus norvegicus, UniProt P53610+Q04631)
# testDescription: Inhibition of rat Geranylgeranyl transferase (GGPT)

Prompt: I am curious: what IC50 value has been reported for O=C(Cc1cc[n+]([O-])cc1)N1CCN([C@H]2c3ccc(Cl)cc3CCc3cc(Br)cnc32)CC1 ?
Completion: > 76 µM

Prompt: Using the record for CN1CCC(CC(=O)N2CCN(C3c4ccc(Cl)cc4CCc4cc(Br)cnc43)CC2)CC1 (centres undefined) , report its IC50.
Completion: > 38 µM

Prompt: Which IC50 reading was recorded for the compound O=C(Nc1cccnc1)N1CCN(C2c3ccc(Cl)cc3CCc3cccnc32)CC1 (centres undefined) ?
Completion: > 46 µM

Prompt: GET /values?readout=IC50&item= CC(=O)N1CCC(CC(=O)N2CCN(C3c4ccc(Cl)cc4CCc4cc(Br)cnc43)CC2)CC1 (centres undefined)
Completion: > 34 µM

Prompt: What value of IC50 has been recorded for this entry: O=C(Cc1cc[n+]([O-])cc1)N1CCN(C2c3ccc(Cl)cc3CCc3cc(Br)cnc32)CC1 (centres undefined)
Completion: > 38 µM

Prompt: I am curious: what IC50 value has been reported for CC(=O)C1CCC(C(=O)N2CCN(C3c4ccc(Cl)cc4CCc4cccnc43)CC2)CC1 (centres undefined) ?
Completion: > 43 µM

Prompt: Form field: reported IC50 of NC(=O)N1CCC(CC(=O)N2CCN(C3c4ccc(Cl)cc4CCc4cc(Br)cnc43)CC2)CC1 (centres undefined)
Completion: > 35 µM

Prompt: Report IC50 for CN(C)c1ccc(CC(=O)N2CCN(C3c4ccc(Cl)cc4CCc4cccnc43)CC2)cc1 (centres undefined) please.
Completion: 42 µM

Prompt: Value lookup for IC50; key = O=C(CC1CCNCC1)N1CCN(C2c3ccc(Cl)cc3CCc3cc(Br)cnc32)CC1 (centres undefined)
Completion: > 38 µM

Prompt: What IC50 value was documented for this compound, O=C(CN1C(=O)c2ccccc2C1=O)N1CCN(C2c3ccc(Cl)cc3CCc3cccnc32)CC1 (centres undefined) ?
Completion: > 40 µM

Prompt: Item under review: O=C(Cc1ccc(Br)cc1)N1CCN(C2c3ccc(Cl)cc3CCc3cccnc32)CC1 (centres undefined) . Reported IC50?
Completion: > 50 µM

Prompt: Which IC50 value belongs to O=C(Nc1ccccn1)N1CCN(C2c3ccc(Cl)cc3CCc3cccnc32)CC1 (centres undefined) ?
Completion: > 46 µM

Prompt: Requested field: IC50. Item: O=C(Cc1ccncc1)N1CCN(C2c3ccc(Cl)cc3CCc3cc(Br)cnc32)CC1 (centres undefined)
Completion: > 39 µM

Prompt: Could you share which IC50 value was measured for O=C(Cc1cc[n+]([O-])cc1)N1CCN([C@@H]2c3ccc(Cl)cc3CCc3cc(Br)cnc32)CC1 ?
Completion: > 38 µM

Prompt: Param item = O=C(Cc1cccnc1)N1CCN(C2c3ccc(Cl)cc3CCc3cccnc32)CC1 (centres undefined) ; retrieve measured IC50.
Completion: > 46 µM

Prompt: Please report the recorded IC50 for CN1CCC(NC(=O)N2CCN(C3c4ccc(Cl)cc4CCc4cc(Br)cnc43)CC2)CC1 (centres undefined) .
Completion: > 38 µM

Prompt: # lookup: IC50 of N[C@@H](CO)C(=O)N1CCC(CC(=O)N2CCN(C3c4ccc(Cl)cc4CCc4cc(Br)cnc43)CC2)CC1 (some centres undefined)
Completion: > 33 µM

Prompt: Which IC50 value belongs to O=C(Nc1ccccc1)N1CCN(C2c3ccc(Cl)cc3CCc3cccnc32)CC1 (centres undefined) ?
Completion: > 40 µM

Prompt: GET /values?readout=IC50&item= O=C(Cc1cccnc1)N1CCN(C2c3ccc(Cl)cc3CCc3cc(Br)cnc32)CC1 (centres undefined)
Completion: > 10 µM
